In this section we review reported pIC50 values for a set of molecules.
target: Recombinant human TRKB (Homo sapiens, UniProt Q16620); test: In vitro activity test on TRKB kinase (HTRF KinEASE TK); conditions: 4.77 μM ATP, 50 min
Sequence (Q16620 32-822): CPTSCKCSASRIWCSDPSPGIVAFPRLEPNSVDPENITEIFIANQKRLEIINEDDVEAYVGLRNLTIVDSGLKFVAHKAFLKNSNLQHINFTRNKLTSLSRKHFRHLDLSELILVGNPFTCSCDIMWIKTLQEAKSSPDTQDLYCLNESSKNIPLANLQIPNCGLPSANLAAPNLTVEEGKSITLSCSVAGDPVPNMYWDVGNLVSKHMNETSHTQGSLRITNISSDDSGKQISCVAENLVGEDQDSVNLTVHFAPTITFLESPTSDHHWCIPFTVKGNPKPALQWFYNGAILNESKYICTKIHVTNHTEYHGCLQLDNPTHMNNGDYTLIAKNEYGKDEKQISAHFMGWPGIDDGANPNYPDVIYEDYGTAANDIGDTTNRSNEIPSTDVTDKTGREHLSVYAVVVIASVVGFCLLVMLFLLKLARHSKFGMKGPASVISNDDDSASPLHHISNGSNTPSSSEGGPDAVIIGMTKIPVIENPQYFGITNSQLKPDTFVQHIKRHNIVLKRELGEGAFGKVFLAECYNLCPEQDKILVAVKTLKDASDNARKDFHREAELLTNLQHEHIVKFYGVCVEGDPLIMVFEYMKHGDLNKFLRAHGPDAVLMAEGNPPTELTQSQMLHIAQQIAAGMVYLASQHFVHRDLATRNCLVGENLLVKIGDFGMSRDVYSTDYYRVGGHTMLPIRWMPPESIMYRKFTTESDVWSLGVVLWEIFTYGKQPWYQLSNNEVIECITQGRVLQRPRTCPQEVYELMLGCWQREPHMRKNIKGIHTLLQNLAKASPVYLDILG
pIC50: −log10 of the molar value.

The following molecules have reported results that may help.
{"MOLECULE": "OC1CCC(Nc2ccnc3ccc(N4C[C@@H](F)C[C@@H]4c4cc(F)ccc4F)nc23)C1 (stereo partly drawn)", "pIC50": "> 8.00"}
{"MOLECULE": "Fc1ccc(F)c([C@H]2CCCN2c2ccc3ncc(Cl)c(-c4cnn(C5CCNCC5)c4)c3n2)c1", "pIC50": "> 9.00"}
{"MOLECULE": "Fc1ccc(F)c([C@H]2C[C@H](F)CN2c2ccc3ncnc(-c4noc(C5CCNCC5)n4)c3n2)c1", "pIC50": "> 8.00"}

Give recorded pIC50 with Recombinant human TRKB (Homo sapiens, UniProt Q16620) for the following molecule: CN1CC(n2cc(-c3c(Cl)cnc4ccc(N5C[C@@H](F)C[C@@H]5c5cc(F)ccc5F)nc34)cn2)C1 > 9.00

Give recorded pIC50 with Recombinant human TRKB (Homo sapiens, UniProt Q16620) for the following molecule: O=C(Nc1c(Cl)cnc2ccc(N3C[C@@H](F)C[C@@H]3c3cc(F)ccc3F)nc12)N1CC[C@H](O)C1 > 9.00

Give recorded pIC50 with Recombinant human TRKB (Homo sapiens, UniProt Q16620) for the following molecule: OC1CCN(c2nc(-c3ncnc4ccc(N5C[C@@H](F)C[C@@H]5c5cc(F)ccc5F)nc34)no2)CC1 > 8.00
